- tested_target: furin, P09958;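 note: purified furin at 1:10 enzyme:substrate in 50 mM HEPES pH 7.5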
- Sequence (P09958 whole entry): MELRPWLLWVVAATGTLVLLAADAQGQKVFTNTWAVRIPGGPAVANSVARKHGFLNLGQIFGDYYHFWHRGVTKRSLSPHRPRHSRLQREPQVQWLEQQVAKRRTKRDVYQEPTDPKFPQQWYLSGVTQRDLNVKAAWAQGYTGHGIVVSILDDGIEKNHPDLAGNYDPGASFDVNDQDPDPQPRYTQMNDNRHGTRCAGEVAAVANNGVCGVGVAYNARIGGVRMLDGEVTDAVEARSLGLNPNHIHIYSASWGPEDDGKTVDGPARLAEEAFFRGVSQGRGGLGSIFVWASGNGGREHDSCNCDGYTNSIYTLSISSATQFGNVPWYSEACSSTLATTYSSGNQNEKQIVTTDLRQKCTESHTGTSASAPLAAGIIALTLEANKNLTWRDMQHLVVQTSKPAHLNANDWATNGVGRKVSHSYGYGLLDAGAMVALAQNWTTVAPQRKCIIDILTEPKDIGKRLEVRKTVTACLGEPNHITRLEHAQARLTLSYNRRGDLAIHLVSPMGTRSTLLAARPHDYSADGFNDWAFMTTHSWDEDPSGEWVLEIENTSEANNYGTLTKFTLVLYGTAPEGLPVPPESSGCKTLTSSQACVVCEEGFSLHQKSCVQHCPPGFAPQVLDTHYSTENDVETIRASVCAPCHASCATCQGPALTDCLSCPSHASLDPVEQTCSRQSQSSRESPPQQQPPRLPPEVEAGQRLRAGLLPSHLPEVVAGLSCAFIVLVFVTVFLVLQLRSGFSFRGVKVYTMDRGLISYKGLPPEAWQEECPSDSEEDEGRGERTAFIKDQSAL
- test_details: furin cleavage Z-score vs untreated control; higher = more cleavage, active = 3.5 or more, inactive = 1 or less, 8 variable residues between constant flanks
- experimental_conditions: 30 min
Some of the results follow. The hit rate among all sequences tested is not known here.
Below is a list of entries, each paired with its recorded furin cleavage Z-score value.
The response must contain the number and no unit.

Known furin cleavage Z-score results, listed for orientation:
CARKKRQVPYAGNASASA [FS-2269]: 5.84
CATTCCSGSWAGNASASA [HC1880]: -0.734
CAFRIRTIRSAGNASASA [FS-772]: 9.8
CARKSRSKSKAGNASASA [FS-3195]: 0.352
CAPLGNWFGCAGNASASA [HC433]: 1.54

**Query** Fill in: furin cleavage Z-score of CASRYRFIRSAGNASASA [FS-1089] is ___
**Result** 7.95

**Query** Fill in: furin cleavage Z-score of CATPEDFVRSAGNASASA [FS-920] is ___
**Result** -0.221
